remaining at 1 h, 800 uM values by entry
# assayOverview: Plasma serum stability of analogues
# Type: in vitro ADME
# assayContext: Human Serum; test concentration 800 uM; 1-hour incubation; read-out: Mean Parent Remaining (%)
experimentalReadout: remaining at 1 h, 800 uM (%)

CC(C)Cc1ccc(C(C)C(=O)N[C@H](Cc2ccc(O)cc2)C(=O)N[C@@H](CCCNC(=N)N)C(N)=O)cc1 (some centres unmarked) | 94.1
CC(C)Cc1ccc([C@H](C)C(=O)N[C@@H](Cc2ccc(O)cc2)C(=O)N[C@@H](CCCNC(=N)N)C(N)=O)cc1 | 51.4
